experiment: Saturation of dye in decane (solubility); type: physicochemical; details: saturated solution in decane
metric: Saturation wt % in decane (wt %)

molecule: CCCCCCCCCCCCCCCCCCN(CCCCCCCCCCCCCCCCCC)c1cc(NC(C)=O)c(/N=N/c2c(C#N)cc([N+](=O)[O-])cc2C#N)cc1OC
measured-number: 0.003

P. CCCCCCCCN(CCCCCCCC)c1ccc(/N=N/c2ccc([N+](=O)[O-])cc2)c(C)c1
Q. CCCCCCCCN(CCCCCCCC)c1ccc(/N=N/c2snc(C)c2C#N)c(NC(C)=O)c1
Returns the identifier with the smallest measured Saturation wt % in decane among P and Q . Return value: the label identifying the chosen record.
Q

====

assay: Saturation of dye in decane (solubility); format: physicochemical; details: saturated solution in decane
metric: Saturation wt % in decane (wt %)

1. CCCCCCCCCCCCCCc1ccc(/N=N/c2c(C)c(C#N)c(=O)n(CC(CC)CCCC)c2O)cc1 (stereo not drawn) [Dye 5]
2. CCCCCCCCCCCCCCc1ccc(/N=N/c2c(C)cc(=O)n(CC(CC)CCCC)c2O)cc1 (stereo not drawn) [Dye 6]
3. CCCCc1ccc(/N=N/c2ccc(N(CCCC)CCCC)cc2)cc1 [Dye 7]
Please list these compounds in decreasing order of Saturation wt % in decane. # output: labels, in the requested order
3, 2, 1
